- assayed.target: MCH receptor (Homo sapiens)
- Construct: expressed in transfected cells; host or cells: CHO cells
- method: MCH Receptor Binding Assay ([125I]-MCH, SPA beads, membranes from CHO cells expressing the MCH receptor)
- protocol.conditions: Ki rating (class)
property: Ki

compound	Ki
CC(=O)Nc1ccc2c(c1)CC(N(CCCN1CCN(C)CC1)C(=O)Nc1ccc(F)c(Cl)c1)CC2 (stereo not drawn) [Compound I]	< 1000 nM
CNS(=O)(=O)c1ccc2c(c1)CC(N(CCCN1CCN(C)CC1)C(=O)Nc1cc(Cl)nc(Cl)c1)CC2 (stereo not drawn) [Compound XXII]	< 1000 nM
C[C@@H]1CN(CCCN(C(=O)Nc2ccc(F)c(Cl)c2)C2COc3ccc(Br)cc3C2)[C@@H](C)CN1C(=O)OC(C)(C)C (stereo partly drawn) [Compound XXVI]	1000 to 2000 nM
CN1CCN(CCCN(C(=O)Nc2cc(Cl)nc(Cl)c2)C2CCc3cc(C#N)ccc3C2)CC1 (stereo not drawn) [Compound VI]	< 1000 nM

Measured Ki of C[C@@H]1CN(CCCN(C(=O)Nc2cc(Cl)nc(Cl)c2)C2COc3ccc(Br)cc3C2)[C@@H](C)CN1C(=O)OC(C)(C)C (stereo partly drawn) [XXIII] : 1000 to 2000 nM

Measured Ki of CN1CCN(CCCN(C(=O)Nc2cc(Cl)nc(Cl)c2)C2CCc3ccc(S(C)(=O)=O)cc3C2)CC1 (stereo not drawn) [Compound XIII] : < 1000 nM

Measured Ki of CC(C)C(=O)Nc1ccc2c(c1)CC(N(CCCN1CCN(C)CC1)C(=O)Nc1ccc(F)c(Cl)c1)CC2 (stereo not drawn) [Compound IV] : < 1000 nM

Measured Ki of CN1CCN(CCCN(C(=O)Nc2ccc(F)c(C(F)(F)F)c2)C2CCc3ccc(S(=O)(=O)N(C)C)cc3C2)CC1 (stereo not drawn) [Compound XXXI] : > 2000 nM

Measured Ki of CN1CCN(CCCN(C(=O)Nc2ccc(F)c(Cl)c2)C2Cc3ccccc3C2)CC1 [Compound XIX] : < 1000 nM

Measured Ki of C[C@@H]1CN(C(=O)OC(C)(C)C)[C@@H](C)CN1CCCN(C(=O)Nc1ccc(F)c(Cl)c1)C1COc2ccc(Br)cc2C1 (stereo partly drawn) [Compound XXV] : 1000 to 2000 nM

Measured Ki of C[C@@H]1CN[C@@H](C)CN1CCCN(C(=O)Nc1ccc(F)c(Cl)c1)C1COc2ccc(Br)cc2C1 (stereo partly drawn) [Compound XVIII] : < 1000 nM

Measured Ki of C[C@@H]1CN[C@@H](C)CN1CCCN(C(=O)Nc1cc(Cl)nc(Cl)c1)C1COc2ccc(Br)cc2C1 (stereo partly drawn) [Compound V] : < 1000 nM

Measured Ki of CNS(=O)(=O)c1ccc2c(c1)CC(N(CCCN1CCN(C)CC1)C(=O)Nc1ccc(F)c(C(F)(F)F)c1)CC2 (stereo not drawn) [Compound XXVII] : 1000 to 2000 nM

Measured Ki of C[C@@H]1CN(CCCN(C(=O)Nc2ccc(F)c(Cl)c2)C2COc3ccc(Br)cc3C2)[C@@H](C)CN1 (stereo partly drawn) [Compound XXI] : < 1000 nM

Measured Ki of CN1CCN(CCCN(C(=O)Nc2ccc(F)c(Cl)c2)C2CCc3ccc(N)cc3C2)CC1 (stereo not drawn) : < 1000 nM

----------
- assayed.target: MCH receptor (Homo sapiens)
- Construct: expressed in transfected cells; host or cells: CHO cells
- method: MCH Receptor Binding Assay ([125I]-MCH, SPA beads, membranes from CHO cells expressing the MCH receptor)
- protocol.conditions: [125I]-MCH
pKi: −log10 of the molar value.
property: pKi

Worked set:
> print(dat)
                                   molecule  property  assay.result
1  C[C@@H]1CN[C@@H](C)CN1CCCN(C(=O)Nc1cc(Cl)nc(Cl)c1)C1COc2ccc(Br)cc2C1 (stereo partly shown)       pKi          7.20
2  CC(=O)Nc1ccc2c(c1)CC(N(CCCN1CCN(C)CC1)C(=O)Nc1ccc(F)c(Cl)c1)CC2 (stereo not shown)       pKi          8.22
3  CN1CCN(CCCN(C(=O)Nc2ccc(F)c(Cl)c2)C2CCc3ccc([N+](=O)[O-])cc3C2)CC1 (stereo not shown)       pKi          7.96
4  CC(C)C(=O)Nc1ccc2c(c1)CC(N(CCCN1CCN(C)CC1)C(=O)Nc1ccc(F)c(Cl)c1)CC2 (stereo not shown)       pKi          7.21
5  COc1ccc2c(c1)CC(N(CCCN1CCN(C)CC1)C(=O)Nc1ccc(F)c(Cl)c1)CC2 (stereo not shown)       pKi          7.04

1: CCNC(=O)Nc1ccc2c(c1)CC(N(CCCN1CCN(C)CC1)C(=O)Nc1ccc(F)c(Cl)c1)CC2 (stereo not shown)
2: CN1CCN(CCCN(C(=O)Nc2ccc(F)c(Cl)c2)C2CCc3ccc(C#N)cc3C2)CC1 (stereo not shown)
Lookup: # min-compare on pKi between 1 and 2 Pick one and reply with its label.
Found: 1

I: CN1CCN(CCCN(C(=O)Nc2ccc(F)c(Cl)c2)C2CCc3cc(Br)ccc3C2)CC1 (stereo not shown)
II: CN1CCN(CCCN(C(=O)Nc2cc(Cl)nc(Cl)c2)C2CCc3cc(C#N)ccc3C2)CC1 (stereo not shown)
Lookup: # min-compare on pKi between I and II Pick one and reply with its label.
Found: I

----------
- assayed.target: MCH receptor (Homo sapiens, UniProt Q99705)
- Construct: expressed in transfected cells; host or cells: CHO cells
- Sequence (Q99705 whole entry): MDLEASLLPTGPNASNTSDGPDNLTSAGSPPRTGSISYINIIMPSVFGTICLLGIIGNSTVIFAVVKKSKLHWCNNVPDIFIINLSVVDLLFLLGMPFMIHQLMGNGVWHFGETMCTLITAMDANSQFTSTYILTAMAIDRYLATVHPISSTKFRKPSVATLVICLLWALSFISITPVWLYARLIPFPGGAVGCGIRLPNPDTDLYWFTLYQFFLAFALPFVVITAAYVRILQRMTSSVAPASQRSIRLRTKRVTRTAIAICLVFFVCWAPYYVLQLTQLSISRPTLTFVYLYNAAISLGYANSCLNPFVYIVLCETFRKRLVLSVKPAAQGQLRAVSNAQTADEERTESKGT
- method: MCH Receptor Binding Assay ([125I]-MCH, SPA beads, membranes from CHO cells expressing the MCH receptor)
- protocol.conditions: Ki rating (class)
property: Ki

Worked set:
> print(dat)
                                   compound  assay.result
1  CCNC(=O)Nc1ccc2c(c1)CC(N(CCCN1CCN(C)CC1)C(=O)Nc1ccc(F)c(Cl)c1)CC2 (stereo not drawn)     < 1000 nM
2  CN1CCN(CCCN(C(=O)Nc2ccc(F)c(Cl)c2)C2CCc3ccc(NS(C)(=O)=O)cc3C2)CC1 (stereo not drawn)     < 1000 nM
3  CN1CCN(CCCN(C(=O)Nc2ccc(F)c(Cl)c2)C2CCc3ccc(S(=O)(=O)N(C)C)cc3C2)CC1 (stereo not drawn)     > 2000 nM

Here's the next entry for you.
Measured Ki of COc1cc2c(cc1OC)CC(N(CCCN1CCN(C)CC1)C(=O)Nc1ccc(F)c(Cl)c1)CC2 (stereo not drawn) : > 2000 nM

----------
- assayed.target: MCH receptor (Homo sapiens)
- Construct: expressed in transfected cells; host or cells: CHO cells
- method: MCH Receptor Binding Assay ([125I]-MCH, SPA beads, membranes from CHO cells expressing the MCH receptor)
- protocol.conditions: Ki rating (class)
pKi: −log10 of the molar value.
property: pKi

> print(dat)
                                   molecule  property  assay.result
1  CN1CCN(CCCN(C(=O)Nc2ccc(F)c(Cl)c2)C2CCc3ccccc3C2)CC1 (centres unmarked)       pKi        > 6.00
2  COc1ccc2c(c1)CC(N(CCCN1CCN(C)CC1)C(=O)Nc1ccc(F)c(Cl)c1)CC2 (centres unmarked)       pKi        > 6.00

Measured pKi of CN1CCN(CCCN(C(=O)Nc2ccc(F)c(Cl)c2)C2CCc3ccc(S(C)(=O)=O)cc3C2)CC1 (centres unmarked) : 5.70 to 6.00

Measured pKi of COc1cc2c(cc1OC)CC(N(CCCN1CCN(C)CC1)C(=O)Nc1cc(Cl)nc(Cl)c1)CC2 (centres unmarked) : > 6.00

Measured pKi of COc1ccc2c(c1)CCC(N(CCCN1CCN(C)CC1)C(=O)Nc1ccc(F)c(Cl)c1)C2 (centres unmarked) : > 6.00

----------
- assayed.target: MCH receptor (Homo sapiens)
- Construct: expressed in transfected cells; host or cells: CHO cells
- method: MCH Receptor Binding Assay ([125I]-MCH, SPA beads, membranes from CHO cells expressing the MCH receptor)
- protocol.conditions: Ki rating (class)
pKi: −log10 of the molar value.
property: pKi

Measured pKi of CN1CCN(CCCN(C(=O)Nc2cc(Cl)nc(Cl)c2)C2CCc3ccc(S(=O)(=O)N(C)C)cc3C2)CC1 (stereo not drawn) : < 5.70

Measured pKi of CN1CCN(CCCN(C(=O)Nc2ccc(F)c(Cl)c2)C2CCc3ccc(C#N)cc3C2)CC1 (stereo not drawn) : > 6.00

Measured pKi of CN1CCN(CCCN(C(=O)Nc2ccc(F)c(Cl)c2)C2CCc3ccc([N+](=O)[O-])cc3C2)CC1 (stereo not drawn) : > 6.00
